Recorded values, source paper PMC10041525.

- Test system: 100 A. baumannii strains (50 MDR, 50 non-MDR)
- Experimental protocol: MIC broth microdilution at IHMA Europe, panel of 100 strains
- Format: cell-based
- Recorded conditions: Acinetobacter baumannii, A. baumannii IHMA 1815856, Israel 2018, MDR; read-out: MIC

| Molecule | Relation symbol | MIC, µg/mL |
| --- | --- | --- |
| CN(C)c1cc(NC(=O)CNC(C)(C)C)c(O)c2c1C[C@H]1C[C@H]3[C@H](N(C)C)C(O)=C(C(N)=O)C(=O)[C@@]3(O)C(O)=C1C2=O | = | 2 |
| CO/N=C(\C(=O)N[C@@H]1C(=O)N2C(C(=O)[O-])=C(C[N+]3(C)CCCC3)CS[C@H]12)c1csc(N)n1 [Cefepime, cefepime] | > | 32 |
| Cc1[nH]c(C(=O)Nc2nc3c(N4[C@@H]5CC[C@H]4COC5)cc(C(=O)O)cc3s2)c(Cl)c1Cl | = | 2 |
